System: Ctenocephalides felis
method_summary: Ctenocephalides felis oral test
Format: in vivo
assay_setup: 48 h, application rate 100 ppm in citrated cattle blood, kill after 2 days, read-out: efficacy

[
  {
    "chem_smiles": "CCS(=O)(=O)c1c(-c2nc3cc(C(F)(F)F)ncc3n2C)nc(-c2cccc(Cl)n2)n1C",
    "pest or weed control at 100 ppm (%)": 100
  },
  {
    "chem_smiles": "CCS(=O)(=O)c1c(-c2nc3cc(C(F)(F)F)ncc3n2C)nc(-c2ccccn2)n1C",
    "pest or weed control at 100 ppm (%)": 100
  },
  {
    "chem_smiles": "CCS(=O)(=O)c1c(-c2nc3cc(C(F)(F)F)ncc3n2C)nc(C(=O)N(C)C)n1C",
    "pest or weed control at 100 ppm (%)": 90
  },
  {
    "chem_smiles": "CCS(=O)(=O)c1c(-c2nc3cc(C(F)(F)F)ncc3n2C)nc(-c2ccc(Cl)cc2)n1C",
    "pest or weed control at 100 ppm (%)": 100
  },
  {
    "chem_smiles": "CCS(=O)(=O)c1c(-c2nc3cc(C(F)(F)F)ncc3n2C)nc(Cl)n1C(C)C",
    "pest or weed control at 100 ppm (%)": 80
  },
  {
    "chem_smiles": "CCS(=O)(=O)c1c(-c2nc3cc(C(F)(F)F)ncc3n2C)nc(-c2cncnc2)n1C",
    "pest or weed control at 100 ppm (%)": 100
  },
  {
    "chem_smiles": "CCS(=O)(=O)c1c(-c2nc3cc(C(F)(F)F)ncc3n2C)nc(-c2cncc(F)c2)n1C",
    "pest or weed control at 100 ppm (%)": 100
  },
  {
    "chem_smiles": "CCS(=O)(=O)c1c(-c2nc3cc(C(F)(F)F)ncc3n2C)nc(-c2ccn[nH]2)n1C",
    "pest or weed control at 100 ppm (%)": 80
  }
]
